Values were extracted from ChEMBL document CHEMBL4177636.

- assay-overview: Induction of DNA (unknown origin) alkylation assessed as amount remaining of unalkylated test oligonucleotides after 18 hrs by LC/MS/UV analysis
- Design: concentration or dose not given beside the values
Threshold 90%. Activity below it: Condition met. Activity at it or above: Condition not met.

molecule	class-label
COc1cc2c(cc1OC)N(C(=O)OCc1cnc([N+](=O)[O-])n1C)C(O)[C@@H]1CC(c3ccc4ncccc4c3)=CN1C2=O (stereo partly specified)	Condition not met
C=C1C[C@H]2C=Nc3cc(OC)c(OC)cc3C(=O)N2C1	Condition met
C=C1C[C@H]2C(O)N(C(=O)OCc3cnc([N+](=O)[O-])n3C)c3cc(OC)c(OC)cc3C(=O)N2C1 (stereo partly specified)	Condition not met
C=C1C[C@H]2C=Nc3cc(OCCCCCOc4cc5c(cc4OC)C(=O)N4CC(=C)C[C@H]4C=N5)c(OC)cc3C(=O)N2C1	Condition met

Exam item: For COc1cc2c(cc1OC)C(=O)N1C=C(c3ccc4ncccc4c3)C[C@H]1C=N2 , is the recorded Activity below the cut-off of 90%?
Marked response: Condition met
